target: full length spike (S) protein of SARS-CoV-2 (SARS-CoV-2, UniProt P0DTC2 14-1273); test: cell-based or functional assay
Use criterion met when the recorded Neutralizing activity (%) Mean at 0.0685871 µg/ml is no lower than 10%; use criterion not met when it is lower.

Please review the following examples before continuing.
binder="P2A-1A9 (antibody, V domains shown) VH: EVQLVESGGGLVQPGRSLRLSCAASGFTFDDYAMHWVRQVPGKGLEWVSGISWNGGIIGYADSVKGRFTISRDNAKTSLYLQMNSLRAEDTALYYCAKVAGRGDYDYYYGMDVWGQGTTVTVSS VL: QSVLTQPPSVSGAPGQRVTISCTGSSSNIGAGYDVHWYQQLPGTAPKLLIYGNNNRPSGVPDRFSGSKSGTSASLAITGLQAEDEADYYCQSYDSSLSGSVFGGGTKLTVLG" group_label="criterion met"
binder="P2B-2F6 (antibody, V domains shown) VH: QVQLQESGPGLVKPSETLSLTCTVSGYSISSGYYWGWIRQPPGKGLEWIGSIYHSGSTYYNPSLKTRVTISVDTSKNQFSLKLSSVTAADTAVYYCARAVVGIVVVPAAGRRAFDIWGQGTMVTVSS VL: QSALTQPPSASGSPGQSVTISCTGTSSDVGGYNYVSWYQQHPGKAPKLMIYEVSKRPSGVPDRFSGSKSGNTASLTVSGLQAEDEADYYCSSYAGSNNLVFGGGTKLTVLG" group_label="criterion met"

Q. Assess whether reported Neutralizing activity (%) Mean at 0.0685871 µg/ml for P2A-1B3 (antibody, V domains shown) VH: EVQLVESGGGLVQPGGSLRLSCVASGFSFNRYSMNWLRQTPRKGLEWLSYISASGNTIYYADSVRGRFTTSRDNAKNTLYLQMNSLRDDDTAVYFCARPAMVREGTYNWFDPWGQGTLVTVSS VL: EIVLTQSPGTLSLSPGERATLSCRASQSVSNDYLAWYQQKPGQAPRLLIYYASSRATGIPDRFSGSGSGTDFTLTISRLEPGDSAVYYCQQYGDSPPITFGQGTRLEIKR sits at 10% or higher.
A. criterion not met

Q. P2B-2G4 (antibody, V domains shown) VH: QVQLVESGGGVVQPGRSLRLSCAASGFTFSSYGMHWVRQAPGKGLEWVAVIWYDGSNKYYADSVKGRFTISRDNSKNTLYLQMNSLRAEDTAVYYCARGAAMVWLDYWGQGTLVTVSS VL: QSALTQPRSVSGSPGQSVTISCTGTSSDVGGYNYVSWYQQHPGKAPKLMIYDVSKRPSGVPDRFSGSKSGNTASLTISGLQAEDEADYYCCSYAGSYTFVVFGGGTKLTVLG , same question.
A. criterion not met

Q. P2B-2G11 (antibody, V domains shown) VH: EVQLVESGGGLVQPGRSLRLSCAASGFTFDDYAMHWVRQAPGKGLEWVSGISWNGGIIGYADSVKGRFTISRDNAKTSLYLQMNSLKPEDTALYYCAKVAGRGDYDYYYGMDVWGQGTTVTVSS VL: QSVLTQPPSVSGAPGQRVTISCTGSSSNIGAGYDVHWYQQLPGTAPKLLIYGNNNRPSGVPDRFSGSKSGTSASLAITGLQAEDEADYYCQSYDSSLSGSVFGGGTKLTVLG , same question.
A. criterion met

Q. P2A-1A8 (antibody, V domains shown) VH: EVQLVESGGDLVQPGRSLRLSCAASGFAFDDYAMHWVRQAPGKGLEWVSGSTWNSGTIAYADSVKGRFTISRDNAKKSLYLQMNSLRTEDTALYYCAKLGGYSDYDYPRPGDHYYGLDVWGQGTTVTVSS VL: QSALTQPASVSGSPGQSITISCTGTSSDVGSYNLVSWYQQHPGKVPKLLIYDVNKRPSGISNRFSGSKSGNTASLTISGLQAEDEADYYCRSYTDSNTYVFGTGTKVTVLG , same question.
A. criterion met

All values here come from patent US20210292392A1.
